Reference source for all entries: patent US20260248972A1

protocol: in vivo
measurement parameters: BALB/c nude, mouse, in vivo, iv, total radioactivity, % ID/g Kidney
result type: tissue uptake at 24 h (%ID/g)
// units = %ID/g; emit number, no label

Task item: What value of tissue uptake at 24 h has been reported for the following compound? C[C@@H](O)[C@H](NC(=O)[C@@H]1CSSC[C@H](NC(=O)[C@@H](Cc2ccccc2)NC(=O)COCCOCCNC(=O)COCCOCCNC(=O)[C@H](CCCCNC(=O)c2cccc(NC(=O)N[C@@H]3CN(C4CCCCC4)c4ccccc4N(CC(=O)C(C)(C)C)C3=O)c2)NC(=O)CN2CCN(CC(=O)O)CCN(CC(=O)O)CCN(CC(=O)O)CC2)C(=O)N[C@@H](Cc2ccc(O)cc2)C(=O)N[C@H](Cc2c[nH]c3ccccc23)C(=O)N[C@@H](CCCCN)C(=O)N[C@@H]([C@@H](C)O)C(=O)N1)C(=O)O [Compound 177Lu-I-39, metal not drawn]
Reply: 12

Task item: Consider the compound CC(C)(C)C(=O)CN1C(=O)[C@H](NC(=O)Nc2cccc(C(=O)N[C@@H](CCC(=O)N[C@@H](CCC(=O)N[C@@H](CCC(=O)N[C@@H](CCCCNC(=O)COCCOCCNC(=O)COCCOCCNC(=O)CCC(C(=O)O)N3CCN(CC(=O)O)CCN(CC(=O)O)CCN(CC(=O)O)CC3)C(N)=O)C(=O)O)C(=O)O)C(=O)O)c2)CN(C2CCCCC2)c2ccccc21 (stereo partly drawn) [^177Lu-C-4, metal not drawn, reference compound] and give its measured tissue uptake at 24 h.
Reply: 1.32

Task item: For the compound C[C@@H](O)[C@H](NC(=O)[C@@H]1CSSC[C@H](NC(=O)[C@@H](Cc2ccccc2)NC(=O)[C@H](CCCCNC(=O)c2cccc(NC(=O)N[C@@H]3CN(C4CCCCC4)c4ccccc4N(CC(=O)C(C)(C)C)C3=O)c2)NC(=O)COCCOCCNC(=O)CN2CCN(CC(=O)O)CCN(CC(=O)O)CCN(CC(=O)O)CC2)C(=O)N[C@@H](Cc2ccc(O)cc2)C(=O)N[C@H](Cc2c[nH]c3ccccc23)C(=O)N[C@@H](CCCCN)C(=O)N[C@@H]([C@@H](C)O)C(=O)N1)C(=O)O [^177Lu-I-35, metal not drawn] , what tissue uptake at 24 h is on record?
Reply: 6.06

###

protocol: in vivo
measurement parameters: BALB/c nude, mouse, in vivo, iv, total radioactivity, % ID/g Intestine
result type: tissue uptake at 4 h (%ID/g)
Reply numerically in %ID/g, unit not repeated.

Task item: GET /values?readout=tissue uptake at 4 h&item= C[C@@H](O)[C@H](NC(=O)[C@@H]1CSSC[C@H](NC(=O)[C@@H](Cc2ccccc2)NC(=O)[C@H](CCCCNC(=O)COCCOCCNC(=O)c2cccc(NC(=O)N[C@@H]3CN(C4CCCCC4)c4ccccc4N(CC(=O)C(C)(C)C)C3=O)c2)NC(=O)CN2CCN(CC(=O)O)CCN(CC(=O)O)CCN(CC(=O)O)CC2)C(=O)N[C@@H](Cc2ccc(O)cc2)C(=O)N[C@H](Cc2c[nH]c3ccccc23)C(=O)N[C@@H](CCCCN)C(=O)N[C@@H]([C@@H](C)O)C(=O)N1)C(=O)O [^177Lu-I-36, metal not drawn]
Reply: 2.27

Task item: Record request: tissue uptake at 4 h value, item C[C@@H](O)[C@H](NC(=O)[C@@H]1CSSC[C@H](NC(=O)[C@@H](Cc2ccccc2)NC(=O)COCCOCCNC(=O)[C@H](CCCCNC(=O)c2cccc(NC(=O)N[C@@H]3CN(C4CCCCC4)c4ccccc4N(CC(=O)C(C)(C)C)C3=O)c2)NC(=O)CN2CCN(CC(=O)O)CCN(CC(=O)O)CCN(CC(=O)O)CC2)C(=O)N[C@@H](Cc2ccc(O)cc2)C(=O)N[C@H](Cc2c[nH]c3ccccc23)C(=O)N[C@@H](CCCCN)C(=O)N[C@@H]([C@@H](C)O)C(=O)N1)C(=O)O [Compound 177Lu-I-37, metal not drawn]
Reply: 2.17
